- tgt: kinase domain protein of RC kinase (RCK) (Homo sapiens, UniProt Q56UN5)
- Construct: made in house; host or cells: E. coli BL21-derived host (T7 phage) or HEK-293
- Sequence (Q56UN5 1061-1324 limits assumed): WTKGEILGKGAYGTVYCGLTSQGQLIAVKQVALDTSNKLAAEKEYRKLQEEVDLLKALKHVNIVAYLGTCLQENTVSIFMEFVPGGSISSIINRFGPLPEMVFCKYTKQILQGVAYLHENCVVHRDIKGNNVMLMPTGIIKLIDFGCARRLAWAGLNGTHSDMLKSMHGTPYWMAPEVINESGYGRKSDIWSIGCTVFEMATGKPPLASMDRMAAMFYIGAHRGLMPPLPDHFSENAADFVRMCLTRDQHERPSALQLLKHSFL
- procedure text: Kinase competition binding assay (Kd, qPCR readout), RC kinase
- assay conditions: Kd class, read-out: RCK Activity Level
So I've got a bunch of compounds here, and I need their Kd values.

compound | readout value
NC(=O)c1c(Nc2ccc(N3CCOCC3)nc2)n[nH]c1NCc1ccc(O)cc1 [reference compound] | < 0.05 µM
COc1ccc(C(=O)Nc2ccc(Nc3n[nH]c(NCc4ccc(O)cc4)c3C(N)=O)cc2)cc1 [reference compound] | < 0.05 µM

Quick one: give me Kd for each item below, same order please.
1. NC(=O)c1c(Nc2cnc(N3CCOCC3)c(Cl)c2)n[nH]c1NCc1ccc(O)cc1 [reference compound]
2. Cc1cc(CNc2[nH]nc(Nc3ccc(N4CCOCC4)cn3)c2C(N)=O)cc(C)c1O [Compound 11]
3. NC(=O)c1c(Nc2ccc(N3CCOCC3)c(Cl)c2)n[nH]c1NCc1ccc(O)cc1 [reference compound]
4. COc1cccc(C(=O)Nc2ccc(Nc3n[nH]c(NCc4ccc(O)cc4)c3C(N)=O)cc2)c1 [reference compound]

Found:
< 0.05 µM
0.05 to 0.1 µM
< 0.05 µM
< 0.05 µM

Quick request: Kd for each listed item, please.
1. CN1CCN(c2ccc(Nc3n[nH]c(NCc4ccc(O)cc4)c3C(N)=O)cc2)CC1 [reference compound]
2. CN(C)C1CCN(c2ccc(Nc3n[nH]c(NCc4ccc(O)cc4)c3C(N)=O)cc2)CC1 [reference compound]
3. NC(=O)c1c(Nc2ccc(N3CCOCC3)cc2)n[nH]c1NCc1ccc(O)cc1 [reference compound]
4. Cc1cc(Nc2n[nH]c(NCc3ccc(O)cc3)c2C(N)=O)cnc1N1CCN(C(C)C)CC1 [reference compound]
5. Cc1cc(CNc2[nH]nc(Nc3ccc(N4CCC(C)CC4)cc3)c2C(N)=O)cc(C)c1O [Compound 63]
6. Cc1cc(CNc2[nH]nc(Nc3ccc(N4CCN(C(C)C)CC4)cc3)c2C(N)=O)cc(C)c1O [Compound 1]
7. CN(C)c1ccc(Nc2n[nH]c(NCc3ccc(O)cc3)c2C(N)=O)cc1 [reference compound]
8. Cc1cc(Nc2n[nH]c(NCc3ccc(O)cc3)c2C(N)=O)ccc1N1CCOCC1

Found:
< 0.05 µM
< 0.05 µM
< 0.05 µM
< 0.05 µM
0.1 to 1 µM
< 0.05 µM
0.1 to 1 µM
< 0.05 µM

List Kd for every entry below, keeping the order given.
1. NC(=O)c1c(Nc2ccc(N3CCN(c4ncccn4)CC3)cc2)n[nH]c1NCc1ccc(O)cc1 [reference compound]
2. Cc1cc(CNc2[nH]nc(Nc3ccc(N4C[C@@H](C)O[C@@H](C)C4)nc3)c2C(N)=O)cc(C)c1O [Compound 26]

Found:
1. < 0.05 µM
2. 0.1 to 1 µM

###

# Kd per entry for JAK2 (Homo sapiens)

# count of solved cases: 6
compound | property measured | readout value
CN1CCN(c2ccc(Nc3n[nH]c(NCc4ccc(O)cc4)c3C(N)=O)cc2Cl)CC1 [reference compound] | Kd | < 50 nM
COc1cccc(C(=O)Nc2ccc(Nc3n[nH]c(NCc4cc(C)c(O)c(C)c4)c3C(N)=O)cc2)c1 | Kd | > 1000 nM
NC(=O)c1c(Nc2ccc(N3CCOCC3)c(Cl)c2)n[nH]c1NCc1ccc(O)cc1 [reference compound] | Kd | < 50 nM
NC(=O)c1c(Nc2ccc(CN3CCCC3)cc2)n[nH]c1NCc1ccc(O)cc1 [reference compound] | Kd | < 50 nM
Cc1cc(Nc2n[nH]c(NCc3ccc(O)cc3)c2C(N)=O)cnc1N1CCOCC1 [reference compound] | Kd | < 50 nM
C[C@@H]1CC(c2ccc(Nc3n[nH]c(NCc4ccc(O)cc4)c3C(N)=O)cn2)C[C@H](C)O1 (stereo partly drawn) [reference compound] | Kd | < 50 nM

Would you be so kind as to report Kd for each listed record?
1. C[C@@H]1CN(c2ccc(Nc3n[nH]c(NCc4ccc(O)cc4)c3C(N)=O)cc2Cl)C[C@H](C)O1 [reference compound]
2. NC(=O)c1c(Nc2ccc(-c3cc[nH]n3)cc2)n[nH]c1NCc1ccc(O)cc1 [reference compound]

Found:
["< 50 nM", "< 50 nM"]

State recorded Kd for all listed compounds.
1. CN(C)C1CCN(c2ccc(Nc3n[nH]c(NCc4ccc(O)cc4)c3C(N)=O)cc2)CC1 [reference compound]
2. Cc1cc(CNc2[nH]nc(Nc3ccc(-c4cccnc4)cc3)c2C(N)=O)cc(C)c1O
3. COc1ccccc1C(=O)Nc1ccc(Nc2n[nH]c(NCc3ccc(O)cc3)c2C(N)=O)cc1 [reference compound]

Found:
1: < 50 nM; 2: > 1000 nM; 3: < 50 nM

Take each entry in turn and give its Kd.
1. CC(C)N1CCN(c2ccc(Nc3n[nH]c(NCc4ccc(O)cc4)c3C(N)=O)cc2Cl)CC1 [reference compound]
2. Cc1cc(CNc2[nH]nc(Nc3ccc(-n4ccnc4)cc3)c2C(N)=O)cc(C)c1O [Compound 19]

Found:
< 50 nM
> 1000 nM

For every item below, please supply its Kd.
1. Cc1cc(CNc2[nH]nc(Nc3ccc(N4CCN(C(C)C)CC4)c(Cl)c3)c2C(N)=O)cc(C)c1O
2. COc1ccc(C(=O)Nc2ccc(Nc3n[nH]c(NCc4ccc(O)cc4)c3C(N)=O)cc2)cc1 [reference compound]

Found:
1: 100 to 1000 nM; 2: < 50 nM
